- System: Staphylococcus aureus 2012 (VISA)
- assay: MIC by broth microdilution, SA 2012
- Assay type: cell-based
- particulars: Staphylococcus aureus 2012 (VISA); class symbols; read-out: MIC SA 2012
endpoint: MIC

| compound | result |
| --- | --- |
| CCCCCCCCc1ccc(S(=O)(=O)NCCCCCCNCc2c(O)cc3c(c2O)-c2cc(ccc2O)[C@H]2NC(=O)[C@@H]4NC(=O)[C@H](CC(N)=O)NC(=O)[C@H](NC(=O)[C@@H](CC(C)C)NC)[C@H](O)c5ccc(c(Cl)c5)Oc5cc4cc(c5O[C@@H]4O[C@H](CO)[C@@H](O)[C@H](O)[C@H]4O[C@H]4C[C@](C)(NC(=O)NC5CC5)[C@H](O)[C@H](C)O4)Oc4ccc(cc4Cl)[C@@H](O)[C@H](NC2=O)C(=O)N[C@@H]3C(=O)O)cc1 (atropisomer, axis not shown) | 0.01 to 0.5 µg/mL |
| CCCCCCc1ccc(S(=O)(=O)NCCCCCCNCc2c(O)cc3c(c2O)-c2cc(ccc2O)[C@H]2NC(=O)[C@@H]4NC(=O)[C@H](CC(N)=O)NC(=O)[C@H](NC(=O)[C@@H](CC(C)C)NC)[C@H](O)c5ccc(c(Cl)c5)Oc5cc4cc(c5O[C@@H]4O[C@H](CO)[C@@H](O)[C@H](O)[C@H]4O[C@H]4C[C@]5(C)NC(=O)O[C@@H]5[C@H](C)O4)Oc4ccc(cc4Cl)[C@@H](O)[C@H](NC2=O)C(=O)N[C@@H]3C(=O)O)cc1 (atropisomer, axis not shown) | 0.01 to 0.5 µg/mL |
